Measured pKi by item
Target: Mu-type opioid receptor (Rattus norvegicus)
Sequence (P33535 whole entry): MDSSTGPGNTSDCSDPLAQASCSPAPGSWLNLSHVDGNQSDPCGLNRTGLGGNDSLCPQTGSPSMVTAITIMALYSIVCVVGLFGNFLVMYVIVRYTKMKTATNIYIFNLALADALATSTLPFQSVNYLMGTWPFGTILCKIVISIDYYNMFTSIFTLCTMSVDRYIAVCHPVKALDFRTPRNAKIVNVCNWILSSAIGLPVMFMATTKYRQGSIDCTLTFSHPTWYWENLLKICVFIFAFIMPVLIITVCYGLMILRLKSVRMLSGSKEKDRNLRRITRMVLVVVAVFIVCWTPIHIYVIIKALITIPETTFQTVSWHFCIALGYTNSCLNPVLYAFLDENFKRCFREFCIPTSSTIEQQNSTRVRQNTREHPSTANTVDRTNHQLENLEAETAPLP
Assay: Inhibition of [3H]DAGO binding to trat brain opioid receptor mu in P2 membrane
Assay type: cell membranes
pKi: −log10 of the molar value. Peptide text beside a SMILES is read from it.

[
  {
    "compound": "CC(C)[C@H](NC(=O)[C@H](CC(N)=O)NC(=O)[C@H](Cc1ccccc1)NC(=O)[C@H](C)NC(=O)[C@@H](N)Cc1ccc(O)cc1)C(=O)N[C@H](C(=O)NCC(N)=O)C(C)C (H-YAFNVVG-NH2)",
    "measurementTarget": "Mu-type opioid receptor (Rattus norvegicus)",
    "pKi": 6.76
  },
  {
    "compound": "CC(C)[C@H](NC(=O)[C@H](CC(=O)O)NC(=O)[C@H](Cc1ccccc1)NC(=O)[C@@H](C)NC(=O)[C@@H](N)Cc1ccc(O)cc1)C(=O)N[C@H](C(=O)NCC(N)=O)C(C)C",
    "measurementTarget": "Mu-type opioid receptor (Rattus norvegicus)",
    "pKi": 6.41
  }
]

Attribution: ChEMBL document CHEMBL1125663
